TARGET_OF_ASSAY: SARS-CoV-2 spike RBD (Wuhan-Hu-1) (Severe acute respiratory syndrome …, UniProt P0DTC2)
TEST: SPR
Would you mind telling me the reported Kd of each entry?
// note: answer is a bare numeric in nM

GET /values?readout=Kd&item= COVIC-139 (antibody, V domains shown) VH: EVQLVESGGGVVQPGRSLRLSCAASGFTFSSYGMHWVRQAPGKGLEWVAVISYDGSNKYYADSVKGRFTISRDNSKNTLYLQMNSLRAEDTAVYYCANGFGEYYYYAMDVWGQGTTVTVSS VL: NFMLTQPHSVSESPGKTVTISCTGSSGSIASNYVQWYQRRPGSAPTTVIYEDNQRPSGVPDRFSASIDSSSNSASLTISGLKTEDEADYYCQSYDSSNWVFGGGTKLTVL
44.6

GET /values?readout=Kd&item= COVIC-23 (antibody, V domains shown) VH: EVQLLESGGGLVQPGGSLRLSCAASGFTFSNYPMNWVRQAPGKGLEWVSTISGSGGNTFYADSVKGRFTISRDNSKNTLYLQMNSLRAEDTAVYYCVRHDEYSFDYWGQGTLVTVSS
71.3

GET /values?readout=Kd&item= COVIC-153 (antibody, V domains shown) VH: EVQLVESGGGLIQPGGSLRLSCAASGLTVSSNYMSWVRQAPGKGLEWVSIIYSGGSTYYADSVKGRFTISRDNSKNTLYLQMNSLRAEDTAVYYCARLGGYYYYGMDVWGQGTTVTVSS VL: DIQMTQSPSSLSASVGERVTITCQASQDIRNYLNWYQKKPGKAPKLLIYDSSNLETGVPSRFSGSGSGTDFTFTISSLQPEDIATYYCQQYDNLPITFGQGTRLEIKR
2.06

GET /values?readout=Kd&item= COVIC-166 (antibody, V domains shown) VH: QVQLVESGGGVVQPGRSLRLSCAASGFTFSSYGMHWVRQAPGKGLEWVAVISYDGSDKYYADSVKGRFTISRDNSKNTLYLQMNSLRAEDTAVYYCAKTVAGYYYYYYGMDVWGQGTTVTVSS VL: DIQMTQSPSSVSASVGDRVTVTCRASQDISSWLAWFQQKPGKAPKFLIYDASNLENGVPSRFSGSGSGTDFTLTISSLQPEDFATYYCQQAKSFPWTFGQGTKVEINR
0.826

GET /values?readout=Kd&item= COVIC-79 (antibody, V domains shown) VH: EVQLVESGGGLIQPGGSLRLSCAASGFIVSRNYMIWVRQAPGKGLEWVSVIYSGGSTFYADSVKGRFTISRDNSKNTLYLQMNSLRAEDTAVYYCARDLEVAGAIDYWGQGTLVTVSS VL: EIVLTQSPGTLSLSPGERATLSCRASQSISSSYLAWYQQKPGQAPRLLIYGATSRATGTPDRFSGSGSGTDFTLTINRLEPEDFAVYYCQQYGSSPGYTFGQGTKLEIK
0.745

GET /values?readout=Kd&item= COVIC-30 (antibody, V domains shown) VH: EVQLVESGGGLVQPGGSLRLSCAASGFTVSSNYMSWVRQAPGKGLEWVSVIYSGGSTYYADSVKGRFTISRDNSKNTLYLQMNSLRAEDTAVYYCARVEWAAAGTFYWGQGTLVTVSS VL: QSALTQEPSLTVSPGGTVTLTCGSSTGAVTSGHYPYWFQQKPGQAPRTLIYDTSNKRSWTPARFSGSLLGGKAALTLSGAQPEDEAEYYCLLSYSGVWVFGGGTKLTVL
4.1

GET /values?readout=Kd&item= COVIC-266 (antibody, V domains shown) VH: EVQLVESGGGLVQPGGSLRLSCKASGISVAPHAVTWVRQAPGKGLEWIGVIASNADTYYASWAKGRFTISRDNSKNTLYLQMNSLRAEDTAVYYCARHPGSAGYGYTYYYAMDPWGQGTLVTVSS VL: DIQMTQSPSSLSASVGDRVTITCKASEDIRYGLNWYQQKPGKAPKLLIYGANTLEAGVPSRFSGSGSGTDFTLTISSLQPEDFATYYCQQGYSTPLTFGGGTKVEIK
2.41

GET /values?readout=Kd&item= COVIC-134 (antibody, V domains shown) VH: EVQLVESGGGVVQPGRSLRLSCAASGFTFSSYGMHWVRQAPGKGLEWVAVIWYDGSNKYYADSVKGRFTISRDNSKNTLYLQMNSLRAEDTAVYYCAKGPDILTGYYNYYYYGMDVWGQGTMVTVSS VL: QSVLTQPPSVSGAPGQRVTISCTGSSSNIGAGYDVHWYQQLPGTAPKLLIYGNSNRPSGVPDRFSGSKSGTSASLAITGLQAEDEADYYCQSYDSSLSGFYVVFGGGTKLTVL
90

GET /values?readout=Kd&item= COVIC-186 (antibody, V domains shown) VH: QVQLLQSGAEVKKPGASVKVSCKASGYSFTSYYMHWVRQAPGQGLEWMGIINPSGGGTTYAQKFQGRVTMTRDTSTSTVYMELSSLRSEDTAVYYCARPGGGSYQEFDYWGQGTLVTVSS VL: DIQMTQSPSSLSASVGDRVTITCRASQSISSYLNWYQQKPGKAPKLLISAASSLQSGVPSRFSGSGSGTDFTLTISSLQPEDFATYYCQQSYNTLQVTFGGGTKVEIK
6.1

GET /values?readout=Kd&item= COVIC-267 (antibody, V domains shown) VH: EVQLVESGGGLVQPGGSLRLSCTVSGFSLSSYAMSWVRQAPGKGLEWIGIIGNSGNTYYASWAKGRFTISRDNSKNTLYLQMNSLRAEDTAVYYCARNWDPDSYEYTYATNSFDPWGQGTLVTVSS VL: DIQMTQSPSSLSASVGDRVTITCQASESISSYLAWYQQKPGKAPKLLIYRASTLESGVPSRFSGSGSGTDFTLTISSLQPEDFATYYCQCTYGSSSSGSYGNAFGGGTKVEIK
1.95

Data credit: paper PMC12014896
